- Tested on: HCT116
- test: efficacy (fitted maximal change in viability relative to DMSO control); higher = less cytotoxic (negative = loss of viability)
- runConditions: 48 h
Where a name gives a salt, the structure may show the parent alone.
Answer each item with its documented efficacy.
Please answer using the number first and the unit second.

### Prompt Fill in the recorded efficacy for this compound, with HCT116 as test system: COc1cc(N[S+](C)(=O)[O-])ccc1Nc1c2ccccc2nc2ccccc12 [Amsacrine]
### Response -124%

### Prompt Fill in the recorded efficacy for this compound, with HCT116 as test system: Nc1c2c(nc3ccccc13)CCCC2 [Tacrine hydrochloride]
### Response -50.9%

### Prompt Fill in the recorded efficacy for this compound, with HCT116 as test system: C=C1CC[C@@H]2[C@](C)(CO)[C@H](O)CC[C@@]2(C)[C@@H]1C/C=C1/C(=O)OC[C@H]1O [Andrographolide]
### Response -68.1%

Now consider a different compound.
### Prompt Fill in the recorded efficacy for this compound, with HCT116 as test system: COc1ccc(-c2ccc3ncc4c(c3c2)n(-c2ccc(N3CCNCC3)c(C(F)(F)F)c2)c(=O)n4C)cn1 [NVP-BGT226]
### Response -117%

---

Answer each item with its documented efficacy.
- Tested on: HCT116
- test: efficacy (fitted maximal change in viability relative to DMSO control); higher = less cytotoxic (negative = loss of viability)
- runConditions: 48 h
Please answer using the number first and the unit second.

Solved entries:
### Prompt Fill in the recorded efficacy for this compound, with HCT116 as test system: O=C1c2ccccc2-c2n[nH]c3cccc1c23
### Response -63.8%

### Prompt Fill in the recorded efficacy for this compound, with HCT116 as test system: COc1cc2ncnc(Nc3ccc(F)c(Cl)c3)c2cc1OCCCN1CCOCC1
### Response -15.4%

### Prompt Fill in the recorded efficacy for this compound, with HCT116 as test system: Cc1ccc(-n2nc(C(C)(C)C)cc2N/C(O)=N/Cc2cc(F)ccc2Oc2ccc3c(cnn3CCO)c2)cc1
### Response -98.4%

### Prompt Fill in the recorded efficacy for this compound, with HCT116 as test system: COc1cc(C(=O)O)ccc1NC(=O)[C@@H]1N[C@@H](CC(C)(C)C)[C@](C#N)(c2ccc(Cl)cc2F)[C@H]1c1cccc(Cl)c1F
### Response -67.9%

### Prompt Fill in the recorded efficacy for this compound, with HCT116 as test system: CCCOc1ccc2[nH]c(NC(=O)OC)nc2c1
### Response -64.9%

### Prompt Fill in the recorded efficacy for this compound, with HCT116 as test system: C[C@@]12OC(=O)[C@@]1(NC(=O)[C@@H]2CCCl)[C@@H](O)[C@H]\3CCC\C=C3
### Response -92.6%

For the 2 compounds below, give their efficacy values.
1. CC(C)[C@H](CO)Nc1nc(Nc2ccc(C(=O)O)c(Cl)c2)c2ncn(C(C)C)c2n1
2. CC1=CC=C(C=C1)\C2=N\C3=CC=C(Cl)C=C3OC2

### Response
1. -11.6%
2. -31.7%

---

- System: HCT116
- test: AC50 cell viability (CellTiter-Glo); higher = less potent
- runConditions: 48 h
Answer each item with its documented AC50 cell viability.
Please answer using the number first and the unit second.

For the 5 compounds below, give their AC50 cell viability values.
1. c1cn2cc(-c3ccc4cn[nH]c4c3)nc(Nc3ccc(N4CCOCC4)cc3)c2n1
2. CC1(N2CCC(n3c([C@@H]4CCCNC4)nc4ccccc43)CC2)CCCCCCC1
3. COc1ccc2[nH]c3c(c2c1)CCN[C@]31CS[C@@H]2c3c(OC(C)=O)c(C)c4c(c3[C@H](COC1=O)N1[C@@H]2[C@H]2c3c(cc(C)c(OC)c3O)C[C@@H]([C@@H]1O)N2C)OCO4
4. Fc1ccc(CNc2ncnc3ccc(F)cc23)cc1
5. CN(C)CCCNC(=O)c1ccc(-c2cc(O)c3ncccc3c2)cc1

### Response
5.9 µM
9.34 µM
0.00539 µM
1.48 µM
14.8 µM

For the 2 compounds below, give their AC50 cell viability values.
1. CC(=O)Oc1ccccc1C(=O)Nc1ncc([N+](=O)[O-])s1 [Nitazoxanide]
2. O=C(NOCC1CC1)c1ccc(F)c(F)c1Nc1ccc(I)cc1Cl

### Response
["23.5 µM", "4.68 µM"]

---

- Test system: HCT116
- test: efficacy (fitted maximal change in viability relative to DMSO control); higher = less cytotoxic (negative = loss of viability)
- runConditions: 48 h
Answer each item with its documented efficacy.
One number for each entry, in %.

### Prompt Could you share which efficacy value was measured for CCOC(=O)C1=CCCCC1[S+](=O)([O-])Nc1ccc(F)cc1Cl (stereo not drawn) ?
### Response -34.7

For the 7 molecules below, give their efficacy values.
1. NCC1CCN(c2nccc(-c3ccc4ccccc4c3)n2)CC1
2. O=c1oc2cc(O)ccc2s1
3. NC/1=N/C(=O)N(/C=N1)[C@@H]2O[C@H](CO)[C@@H](O)[C@H]2O
4. O=C1CCC(N2C(=O)c3ccccc3C2=O)C(=O)N1 (stereo not drawn) [Thalidomide]
5. CC(=O)Nc1cc(Oc2ccc3c(nc(Nc4ccc(F)cc4F)n3C)c2C)ccn1
6. CC(C)c1c(C(=O)Nc2ccccc2)c(-c2ccccc2)c(-c2ccc(F)cc2)n1CC[C@@H](O)C[C@@H](O)CC(=O)O
7. COC(=O)N1CCN(Cc2cccc(NC(=O)Nc3ccc(C)nc3)c2F)CC1

### Response
-126
-6.66
-82.6
-16.7
-67.4
-63.9
-28.6

---

- Test system: HCT116
- test: efficacy (fitted maximal change in viability relative to DMSO control); higher = less cytotoxic (negative = loss of viability)
- runConditions: 48 h
endpoint: efficacy (%)
One number for each entry, in %.

Solved entries:
### Prompt Could you share which efficacy value was measured for N#C/C(=C(/N)Sc1ccc(N)cc1)c1ccccc1C(F)(F)F ?
### Response -80.4

### Prompt Could you share which efficacy value was measured for CC[C@H]1OC(=O)[C@H](C)[C@@H](O[C@H]2C[C@@](C)(OC)[C@@H](O)[C@H](C)O2)[C@H](C)[C@@H](O[C@@H]2O[C@H](C)C[C@H](N(C)C)[C@H]2O)[C@](C)(O)C[C@@H](C)CN(C)[C@H](C)[C@@H](O)[C@]1(C)O ?
### Response -20.7

### Prompt Could you share which efficacy value was measured for FC1=CC=C(C=C1)N2/C=C\C=C(C(=O)NC3=CC=C(OC4=C5C=C[NH]C5=NC=C4)C(=C3)F)/C2=O ?
### Response -37.8

### Prompt Could you share which efficacy value was measured for COc1cc(Nc2ncc(F)c(Nc3ccc4c(n3)NC(=O)C(C)(C)O4)n2)cc(OC)c1OC ?
### Response -30.6

### Prompt Could you share which efficacy value was measured for CN(Cc1ccccc1)C(=O)c1ccc([S+](=O)([O-])Nc2ccccc2)cc1 ?
### Response -20.4

More entries:
### Prompt Could you share which efficacy value was measured for CC(=O)[C@H]1CC[C@H]2[C@@H]3C/C=C4/C[C@@H](O)CC[C@]4(C)[C@H]3CC[C@]12C ?
### Response -6.65

---

- Test system: HCT116
- test: efficacy (fitted maximal change in viability relative to DMSO control); higher = less cytotoxic (negative = loss of viability)
- runConditions: 48 h
Structures can show the parent of a compound that is named as a salt.
Class membership depends on efficacy alone; the intervals are lower level = under -80%, middle level = from -80% up to -20%, upper level = -20% and over

A selection of reference data follows.
### Prompt Assign a bin to CC1=C(/C=C/C(C)=C/C=C/C(C)=C/C=C/C=C(C)/C=C/C=C(C)/C=C/C2=C(C)CCCC2(C)C)C(C)(C)CCC1
### Response middle level

### Prompt Assign a bin to CN[C@@H]1C[C@H]2O[C@@](C)([C@@H]1OC)n1c3ccccc3c3c4c(c5c6ccccc6n2c5c31)C(=O)NC4
### Response lower level

### Prompt Assign a bin to O=C(Cc1ccccc1)Nc1nnc(CCSCCc2nnc(NC(=O)Cc3ccccc3)s2)s1
### Response middle level

### Prompt Assign a bin to COc1cc2c(cc1OC)CN(CCc1ccc(NC(=O)c3cccc4c(=O)c5cccc(OC)c5[nH]c34)cc1)CC2
### Response upper level

### Prompt Assign a bin to N#C/C(=C\c1ccc(O)c(O)c1)C(=O)NCc1ccccc1
### Response middle level

### Prompt Assign a bin to CN1CCN(C2CCN(C(=O)Nc3cc(Oc4ccc(NC(=O)C5(C(=O)Nc6ccc(F)cc6)CC5)c(F)c4)ccn3)CC2)CC1
### Response lower level

### Prompt Assign a bin to NCC(=O)Nc1ccc(-n2nc(C(F)(F)F)cc2-c2ccc3c(ccc4ccccc43)c2)cc1
### Response lower level

### Prompt Assign a bin to COc1cc(OC)c(C(=O)CCCN2CCCC2)c(OC)c1 [Buflomedil hydrochloride]
### Response upper level

### Prompt Assign a bin to Cc1nnn(C)c1-c1cnc2c3ccc(C(C)(C)O)cc3n([C@H](c3ccccc3)C3CCOCC3)c2c1
### Response lower level

### Prompt Assign a bin to Cc1cccc(/C=N/Nc2cc(N3CCOCC3)nc(OCCc3ccccn3)n2)c1
### Response lower level

More entries:
### Prompt Assign a bin to CNCc1ccc(C)c(NC(=O)c2ccc(Nc3nc(-c4ccccc4)c4ccccc4n3)cc2)c1
### Response lower level

### Prompt Assign a bin to CC(=O)OCC(=O)[C@@]12OC(C)(C)O[C@@H]1C[C@H]3[C@@H]4C[C@H](F)C/5=C/C(=O)/C=C\[C@]5(C)[C@@]4(F)[C@@H](O)C[C@]23C [Fluocinonide]
### Response upper level

### Prompt Assign a bin to N#Cc1c(NC(=O)c2cccc3ccccc23)sc2c1CCCC2
### Response middle level

### Prompt Assign a bin to CCN1/C(=C/C(C)=O)Sc2ccc(OC)cc21
### Response middle level

### Prompt Assign a bin to Clc1ccc(C(c2ccc(Cl)cc2)[n+]2ccn(CC(OCc3ccc(Cl)cc3Cl)c3ccc(Cl)cc3Cl)c2)cc1 (centres undefined) [Calmidazolium chloride]
### Response lower level
